Test System: AR (gene 367)
Assay Notes: ACEA_AR_antagonist_80hr: ACEA Biosciences xCELLigence Real-Time Cell Analysis on Androgen Receptor Antagonism for Proliferation (AID 2283787);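 note: 22Rv1 human prostate cancer cells with growth followed by electrical impedance; hits lower the impedance growth signal relative to DMSO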
Records with an inconclusive call do not appear. Activity calls are given as the source filed them. Rule for the calls: active = hit-call score of the fitted dose curve at least 0.9, where 1 is the maximum; inconclusive = response in the unintended direction; inactive = score below 0.9.
Permitted responses: 1.0 for active, 0.0 for inactive

NC(=O)c1nc(-c2cccc(-c3cc(F)ccc3OCC(F)(F)C(F)(F)F)c2)n[nH]1 :: 1.0

Would you kindly look at the next entry?
What did this assay record as the result for O=C(Nc1ccc(Cl)cc1)Nc1ccc(Cl)c(Cl)c1 ?
1.0

###

Read-out: TIMP metallopeptidase inhibitor 1 (TIMP1), TIMP1 (gene 7076)
Assay Notes: BSK_hDFCGF_TIMP1: BioMAP Diversity Plus: hDFCGF Assay for TIMP metallopeptidase inhibitor 1 (TIMP1) Biomarker Activity (AID 2283062)
Assay Conditions: primary human foreskin fibroblasts; actives raise or lower the signal
Calls of active or inactive are those of the source. The calls were made as follows: active = hit-call score of the fitted dose curve at least 0.9, where 1 is the maximum; inactive = score below 0.9.
Permitted responses: label 1 for active, label 0 for inactive

For orientation, consider the following solved cases.
CCCCCCCCCCCCO :: label 1
Cc1occc1C(=O)Nc1ccc(C(=O)N2CCC(F)(F)/C(=C\C(=O)N3CCC(N4CCCCC4)CC3)c3ccccc32)cc1 :: label 0
CC(C)(O)c1ccc(CNC(=O)c2cccnc2Oc2ccc3nonc3c2)cc1 :: label 0
Clc1cc(Cl)c2c(c1)N=C1CCCCCN1C2 :: label 0
COc1cccc([C@H](O)C2CCN(CCc3ccc(F)cc3)CC2)c1OC :: label 0

What did this assay record as the result for NC(=O)c1nc(-c2cccc(-c3cc(F)ccc3OCC(F)(F)C(F)(F)F)c2)n[nH]1 ?
label 1

What did this assay record as the result for CCCOC(=O)c1cc(O)c(O)c(O)c1 ?
label 0

What did this assay record as the result for O=C(OCCCCCCOC(=O)c1ccccc1)c1ccccc1 ?
label 0

What did this assay record as the result for CC(C)(c1cc(Br)c(O)c(Br)c1)c1cc(Br)c(O)c(Br)c1 ?
label 1

What did this assay record as the result for c1ccc2ccccc2c1 ?
label 0

What did this assay record as the result for O=c1c(-c2ccc(O)cc2)coc2cc(O)cc(O)c12 ?
label 0
